tgt: purified RyR2 (Ovis aries, UniProt A0ACI6RLQ3)
assay-notes: Single-channel recordings of purified RyR2 in planar lipid bilayers
Type: biochemical, sheep
condition-description: IC50, single-channel, purified RyR2 + 100nM CaM
attribute-measured: IC50 (µM)

- smiles-text: "CCCCNc1ccc(C(=O)OCCN(CC)CC)c(OC)c1"
  observed-value: 1.86

---

tgt: purified RyR2 (Ovis aries)
assay-notes: Single-channel recordings of purified RyR2 in planar lipid bilayers
Type: biochemical, sheep
condition-description: IC50, single-channel, purified RyR2 + 1μM CaM
pIC50: −log10 of the molar value.

- smiles-text: "CCCCNc1ccc(C(=O)OCCN(CC)CC)c(OC)c1"
  pIC50: 5.45

---

tgt: UniProtKB A0ACI6RLQ3
assay-notes: Single-channel recordings of purified RyR2 in planar lipid bilayers
Assay type: biochemical, sheep
condition-description: −Log([IC50], M), single-channel, purified RyR2 + 1μM CaM

- smiles-text: "CCCCNc1ccc(C(=O)OCCN(CC)CC)c(OC)c1"
  IC50: "3.55 µM"
